target.desc: T1, human TfR apical domain (human)
T1 chain: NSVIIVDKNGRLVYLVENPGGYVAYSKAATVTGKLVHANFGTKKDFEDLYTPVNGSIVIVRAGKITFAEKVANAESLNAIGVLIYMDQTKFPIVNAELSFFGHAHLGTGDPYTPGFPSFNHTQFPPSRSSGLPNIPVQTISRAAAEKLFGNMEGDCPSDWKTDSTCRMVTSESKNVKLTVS
assay.overview: SPR
pKd: −log10 of the molar value.
readout.type: pKd

1. 35.d1.6 (protein) ASTKGPSVFPLAPSSKSTSGGTAALGCLVKDYFPEPVTVSWNSGALTSGVHTFPAVLQSSGLYSLSSVVTVPSSSLGTQTYICNVNHKPSNTKVDKKVEPKSCDKTHTCPPCPAPELLGGPSVFLFPPKPKDTLMISRTPEVTCVVVDVSHEDPEVKFNWYVDGVEVHNAKTKPREEQYNSTYRVVSVLTVLHQDWLNGKEYKCKVSNKALPAPIEKTISKAKGQPREPQVYTLPPSRDELTKNQVSLTCLVKGFYPSDIAVEWESYGTEWTSYKTTPPVLDSDGSFFLYSKLTVSKSEWQQGFVFSCSVMHEALHNHYTQKSLSLSPELQLEESCAEAQDGELDGLWTT ... 4.95

Values were extracted from patent US20260308269.
